Give Papp A→B at 120 min, 2 μM for every item shown.
# protocolNotes: Permeability test in MDCK cell model
# Assay type: in vitro ADME
# testParameters: dog, pH 7.4
Value expressed in ×10⁻⁶ cm/s; do not type the unit.

Exercise: Input CC[C@@]1(O)C(=O)OCc2c1cc1n(c2=O)Cc2c-1nc1cc(F)c(Cl)cc1c2CNC(=O)C(O)C(F)(F)F (stereo partly shown) [Compound 2-19] , output reported Papp A→B at 120 min, 2 μM.
Solution: 0.5

Exercise: Input CC[C@@]1(O)C(=O)OCc2c1cc1n(c2=O)Cc2c-1nc1cc(F)c(Cl)c3c1c2[C@@H](NC(=O)C[C@H](C)O)CC3 [Compound 2-25] , output reported Papp A→B at 120 min, 2 μM.
Solution: 0.78

Exercise: Input C=CC(O)C(=O)NCc1c2c(nc3cc(F)c(Cl)cc13)-c1cc3c(c(=O)n1C2)COC(=O)[C@]3(O)CC (stereo partly shown) [Compound 2-22] , output reported Papp A→B at 120 min, 2 μM.
Solution: 0.71

Exercise: Input CC[C@@]1(O)C(=O)OCc2c1cc1n(c2=O)Cc2c-1nc1cc(F)c(Cl)cc1c2CNC(=O)CO [Compound 2-1] , output reported Papp A→B at 120 min, 2 μM.
Solution: 0.52

Where do the numbers come from? From patent US20260258051A1.
